meta.source: the Human Domainome abundance scans (Beltran et al. 2025)

B1: E3 ubiquitin-protein ligase NEDD4, residues 836 to 881; numbered along this chain, P46934 (parent)
chain: EIEQGFLPKGWEVRHAPNGRPFFIDHNTKTTTWEDPRLKIPAHLRG

Variants of: B1
protocol-notes: abundance fitness (aPCA) (normalised: wild type 0, dead -1); higher = more abundant; growth selection in yeast, the domain comes from the species named
setup-conditions: Homo sapiens
Grouping rule (abundance fitness): bottom bin: < -0.7; middle bin: ≥ -0.7 and < -0.3; top bin: ≥ -0.3

## Input Categorize the following entry: R45Q
## Output top bin

## Input Assign a category based on measured abundance fitness for K29H and give only the class name.
## Output top bin

## Input Form field 'band' for E34Y
## Output top bin

## Input For the record K39S , report the class its abundance fitness corresponds to.
## Output top bin

## Input For this variant, which bin applies? R45S
## Output top bin

## Input Which abundance fitness category applies to I24S here?
## Output bottom bin

## Input Textbook exercise: identify the category of the variant given here, P36L , according to its measured value.
## Output bottom bin

## Input Form field 'band' for G19A
## Output bottom bin

## Input # bin label for N18C
## Output top bin

## Input Hey, which category is P21Q in, do you know?
## Output top bin

## Input // return the class label for N18V
## Output bottom bin

## Input // return the class label for F22S
## Output bottom bin

## Input State the class of the variant shown: P21D
## Output middle bin

## Input Hello team, could you let me know which band the following variant falls into: E34T
## Output middle bin

## Input Could you tell me which band R20V belongs to?
## Output top bin

## Input For the record T28P , report the class its abundance fitness corresponds to.
## Output bottom bin

## Input Tag the class for F23K
## Output middle bin

## Input Which class is correct for the following variant? K39H
## Output middle bin

## Input Entry A42W belongs to which category?
## Output middle bin

## Input Hi, small favor: classify N27K by its abundance fitness when you get a moment.
## Output top bin

## Input Each variant maps to one class by abundance fitness. Which class for T32D ?
## Output bottom bin
